Experiment: Plasma pharmacokinetics after topical eye drops of CKLP1, days 1, 4 and 8 (LC-MS/MS)
Type: in vivo, Dutch-belted pigmented rabbits
Conditions: female, Dutch-belted pigmented, rabbit, plasma, topical or ocular, plasma, eye drops 10 mM CKLP1 both eyes once daily, Day 4; read-out: Cmax
Property: Cmax (ng/mL)
Numeric only. Scale: ng/mL

[ask] Form field: reported Cmax of CC1(C)Oc2ccc(C#N)cc2[C@@H](N2CCCC2=O)[C@@H]1O [Levcromakalim, levcromakalim, reference compound]
[reply] 0.9
